These measurements were taken from ChEMBL document CHEMBL1157622.

# Test system: A549
# Assay summary: Antiproliferative activity against human A549 cells by MTT assay
# Format: functional, cell-based
Experimental readout: IC50 (µM)

CN(C)CCNc1nc2ccccc2c2[nH]c3ccccc3c12 0.83
Oc1ccc(CCNc2nc3ccc(F)cc3c3[nH]c4ccccc4c23)cc1 9.19
c1ccc2c(c1)nc(NCCCCCCCNc1nc3ccccc3c3[nH]c4ccccc4c13)c1c3ccccc3[nH]c21 1.19

(I) Oc1ccc(Nc2nc3ccccc3c3[nH]c4ccccc4c23)cc1
(II) Oc1ccc(CCNc2nc3ccccc3c3[nH]c4ccccc4c23)cc1
Given the listed items, does I or II have the lesser reported IC50? Please reply using the label of the selected record.
I
(I: 3.87 µM, II: 5.74 µM)

* * *

# Test system: A549
# Assay summary: Antiproliferative activity against human A549 cells by MTT assay
# Assay type: functional, cell-based
pIC50: −log10 of the molar value.
Experimental readout: pIC50

Fc1ccc2nc(NCCN3CCNCC3)c3c4ccccc4[nH]c3c2c1 5.21

(1) Cl.c1ccc2c(c1)nc(NCCCNCCCNc1nc3ccccc3c3[nH]c4ccccc4c13)c1c3ccccc3[nH]c21
(2) c1ccc2c(c1)nc(NCCN1CCNCC1)c1c3ccccc3[nH]c21
Name the one with the greater pIC50 value, either 1 or 2 as given. Please reply using the label of the selected record.
1
(1: 6.96, 2: 6.28)
